// read-out Ki, gathered for UniProt O14965 from published studies

Lookup: Fill in: Ki of CCc1cc(Nc2nc(Nc3cc(CC)[nH]n3)c3ccccc3n2)n[nH]1 is ___
Found: < 100 nM

Lookup: Given c1cncc(CNc2nc(Nc3cc(C4CC4)[nH]n3)c3ccccc3n2)c1 , state its recorded Ki.
Found: < 100 nM

Lookup: Look at this molecule and give its reported Ki. CCN(CCN)C(=O)c1ccc(-c2cnc3c(-c4ccccn4)c(N)nn3c2)nc1
Found: 500 to 5000 nM

Lookup: Give its Ki value. Item: FC(F)(F)c1ccc2c(Nc3nc(-c4ccccc4C(F)(F)F)nc4ccccc34)n[nH]c2c1
Found: 1000 to 20000 nM

Lookup: Can you look up the measured Ki of NC(=O)Cn1cc(Nc2ncc(Cl)c(N[C@H]3[C@@H](C(N)=O)[C@@H]4C=C[C@H]3C4)n2)cn1 for me?
Found: < 100 nM

Lookup: Dear colleague, I am looking for the recorded Ki of the following molecule: Cc1cnc(Nc2cc(N3CC[C@H](F)C3)cc(Sc3ccc(NC(=O)C4CC4)cc3)n2)s1
Found: < 100 nM

Lookup: Need Ki, item Cc1cc(Nc2nc(Nc3cc(C4CC4)[nH]n3)c3ccccc3n2)ccc1Cl
Found: < 100 nM

Lookup: State the recorded Ki for this entry: Fc1cccc2c(Nc3nc(-c4ccccc4)nc4ccccc34)[nH]nc12
Found: 1000 to 20000 nM

====

Field: Ki. System: Aurora kinase A (Homo sapiens, UniProt O14965). Provenance: assorted publications.

Lookup: Suppose we examine the molecule Cc1cc(Nc2cc(N3CCC3)nc(O[C@H]3CCN(C(=O)OC(C)(C)C)C3)n2)[nH]n1 ; what Ki value has been reported?
Found: < 50 nM

Lookup: Requested read-out: Ki. Entry: O=C(O)COc1ccc(Nc2nc(Nc3cc(C4CC4)[nH]n3)c3ccccc3n2)cc1
Found: < 100 nM

Lookup: Find the recorded Ki belonging to Nc1nn2cc(-c3ccc(C(=O)N4CCCC(CO)C4)cn3)cnc2c1-c1ccccn1 (stereo not shown) and report it.
Found: < 500 nM

Lookup: I would be grateful if you could share the reported Ki for Cc1cccc(Nc2nc(Nc3cc(C4CC4)[nH]n3)c3ccccc3n2)c1C .
Found: < 100 nM

====

Study the reported Ki values for Aurora kinase A (Homo sapiens) given below; they originate from different publications.

Lookup: So what Ki did Cc1cc(Nc2cc(C)c(C#N)c(NCCOc3ccc(F)cc3)n2)n[nH]1 get with Aurora kinase A (Homo sapiens)?
Found: 3 nM

Lookup: What measured Ki is associated with CC(=O)Nc1ccc(Sc2nc(Nc3cc(C)[nH]n3)c3ccc(N)cc3n2)cc1 on Aurora kinase A (Homo sapiens)?
Found: < 100 nM

Lookup: Value wanted: Ki (Aurora kinase A (Homo sapiens)) of entry Cc1cc(Nc2cc(N3CC4CCCN(C)C4C3)nc(Sc3ccc(NC(=O)CC(F)(F)F)cc3)n2)[nH]n1 (stereo not shown)
Found: ≤ 10 nM

Lookup: Requested read-out Ki, target or system Aurora kinase A (Homo sapiens), entry CS(=O)(=O)Nc1ccc(Sc2nc(Nc3cc(C4CC4)[nH]n3)c3ccccc3n2)cc1
Found: < 100 nM

Lookup: Enter reported Ki observed with Aurora kinase A (Homo sapiens) for NC(=O)[C@@H]1[C@H](Nc2nc(Nc3cnn([C@H]4CCOC4)c3)ncc2Br)[C@H]2C=C[C@@H]1C2
Found: < 100 nM

Lookup: Lab request: please report Ki under test system Aurora kinase A (Homo sapiens) for Cc1cnc(Nc2cncc(Sc3ccc(NC(=O)C4CC4)cc3)n2)s1
Found: < 100 nM

Lookup: # query: Ki | item CCn1cc(Nc2ncc(C(F)(F)F)c(N[C@H]3[C@@H](C(N)=O)C[C@H]4C[C@@H]3C4(C)C)n2)cn1 | system: Aurora kinase A (Homo sapiens)
Found: < 100 nM

Lookup: Lab request: please report Ki under test system Aurora kinase A (Homo sapiens) for Cc1cc(Nc2nc(Nc3ccc(CC#N)cc3)nc3ccccc23)n[nH]1
Found: < 100 nM

Lookup: Given the entry c1ccc2c(Nc3cc(C4CC4)[nH]n3)nc(Nc3ccc4c(c3)CCC4)nc2c1 , what Ki was observed with Aurora kinase A (Homo sapiens)?
Found: < 100 nM

Lookup: Reported Ki for Aurora kinase A (Homo sapiens), given NC(=O)[C@@H]1[C@H](Nc2nc(Nc3cnn(CCO)c3)ncc2C(F)(F)F)[C@H]2C=C[C@@H]1C2.NC(=O)[C@H]1[C@@H](Nc2nc(Nc3cnn(CCO)c3)ncc2C(F)(F)F)[C@@H]2C=C[C@H]1C2 (mixture of isomers) ?
Found: < 100 nM

Lookup: Value wanted: Ki (Aurora kinase A (Homo sapiens)) of entry OCc1cc(Nc2nc(N3CCCCC3)nc3ccccc23)[nH]n1
Found: 100 to 1000 nM

Lookup: Query the reported Ki for Aurora kinase A (Homo sapiens); item: Nc1nn2cc(-c3cccc(N4CCNCC4)c3)cnc2c1-c1ccccn1
Found: < 500 nM

Lookup: Ki / Aurora kinase A (Homo sapiens) / CCN(CC)C(=O)c1cccc(-c2cnc3c(-c4ccccn4)c(N)nn3c2)n1
Found: 500 to 5000 nM

Lookup: Fill in the recorded Ki for this compound, with Aurora kinase A (Homo sapiens) as test system: CCN(C)C(=O)c1ccc(-c2cnc3c(-c4ccccn4)c(N)nn3c2)nc1
Found: < 500 nM

Lookup: State its Ki on Aurora kinase A (Homo sapiens): NC(=O)[C@@H]1[C@H](Nc2nc(Nc3cnn(Cc4ccc5ccccc5c4)c3)ncc2Cl)[C@H]2C=C[C@@H]1C2
Found: < 100 nM

Lookup: Hi! What's the reported Ki for CCC(=O)Nc1ccc(Sc2nc(Nc3cc(C)n[nH]3)cc(N3CC[C@H](N4CCCC4)C3)n2)cc1 on Aurora kinase A (Homo sapiens)?
Found: ≤ 10 nM

Lookup: Query for Aurora kinase A (Homo sapiens): what Ki does the record show for CCC(=O)Nc1ccc(Sc2nc(Nc3ncc(C)s3)cc(N3CCC(N4CCCC4)CC3)n2)cc1 ?
Found: ≤ 10 nM

Lookup: Kindly state the measured Ki obtained for CCN[C@H]1CCN(c2cc(Nc3cc(C)n[nH]3)nc(Sc3ccc(NC(=O)CC)cc3)n2)C1 with Aurora kinase A (Homo sapiens).
Found: ≤ 10 nM

Lookup: Record CCCc1cc(Nc2nc(-c3ccccc3)nc3ccccc23)[nH]n1 : what is its Ki with Aurora kinase A (Homo sapiens)?
Found: < 100 nM

Lookup: Recorded Ki for Cc1c(-c2ccnc(Nc3cc(N)cc(C(F)(F)F)c3)n2)sc(=O)n1C with Aurora kinase A (Homo sapiens), please?
Found: 110 nM

Lookup: API: value(readout=Ki, system=Aurora kinase A (Homo sapiens)) for record Cc1nc(Nc2cnn(C)c2)nc(N[C@@H]2[C@H](C(N)=O)[C@H]3C=C[C@@H]2C3)c1Cl.Cc1nc(Nc2cnn(C)c2)nc(N[C@H]2[C@@H](C(N)=O)[C@@H]3C=C[C@H]2C3)c1Cl (mixture of isomers)
Found: 100 to 1000 nM

Lookup: For the record Cn1cc(Nc2ncc(C(F)(F)F)c(N[C@@H]3[C@@H]4CC[C@@H](C4)[C@@H]3C(N)=O)n2)cn1.Cn1cc(Nc2ncc(C(F)(F)F)c(N[C@H]3[C@H]4CC[C@H](C4)[C@H]3C(N)=O)n2)cn1 (mixture of isomers) , what value of Ki is listed for Aurora kinase A (Homo sapiens)?
Found: < 100 nM

Lookup: Record Cc1cc(Nc2cc(N3CCC(N4CCC(F)(F)C4)CC3)nc(Sc3ccc(NC(=O)CC(F)(F)F)cc3)n2)[nH]n1 : what is its Ki with Aurora kinase A (Homo sapiens)?
Found: ≤ 10 nM

Lookup: Recorded Ki for Cc1cc(Nc2nc(NCc3ccccc3)nc3ccccc23)n[nH]1 with Aurora kinase A (Homo sapiens), please?
Found: < 100 nM

Lookup: Request: Ki, test system Aurora kinase A (Homo sapiens), entry Nc1nn2cc(-c3ccc(C(=O)N4CCSCC4)cn3)cnc2c1-c1ccccn1
Found: < 500 nM

Lookup: Param readout= Ki; system= Aurora kinase A (Homo sapiens); entry= c1ccc(Cc2nc(Nc3cc(C4CC4)[nH]n3)c3ccccc3n2)cc1 ; returns value.
Found: < 100 nM

Lookup: What reported Ki corresponds to NC(=O)[C@@H]1[C@H](Nc2nc(Nc3cnn(CCN4CCOCC4)c3)ncc2Br)[C@H]2C=C[C@@H]1C2.NC(=O)[C@H]1[C@@H](Nc2nc(Nc3cnn(CCN4CCOCC4)c3)ncc2Br)[C@@H]2C=C[C@H]1C2 (mixture of isomers) on Aurora kinase A (Homo sapiens)?
Found: < 100 nM

Lookup: State its Ki on Aurora kinase A (Homo sapiens): FC(F)(F)c1cccc(-c2nc(Nc3[nH]nc4ccccc34)c3ccccc3n2)c1
Found: 1000 to 20000 nM
